Hi there, I'd appreciate the recorded Binding of serum SARS-yellow to linear peptides of protein X1 of SARS-CoV Urbani for every entry that follows.
- Test system: antibodies in sera from SARS patients (sera 1a, 1b, 2, 6, 37, 62, London, SARS-yellow, SARS-green)
- Type: binding, human
Give bare numbers.

Items follow; give Binding of serum SARS-yellow to linear peptides of protein X1 of SARS-CoV Urbani for each.
1. TDTGIENATFFIFNK
2. DYVVVHGYFTEVYYQ
3. IPYNSVTDTIVVTEG
4. YVVVHGYFTEVYYQL
5. SKNPLLYDANYFVCW

[0.0, 0.3, 0.4, 0.2, 0.4]

* * *

- Test system: antibodies in sera from SARS patients (sera 1a, 1b, 2, 6, 37, 62, London, SARS-yellow, SARS-green)
- Format: binding, human
ASSAY_ENDPOINT: Binding of serum SARS-yellow to looped/cyclic peptides of protein N of SARS-CoV Urbani
Answers are plain numbers.

Illustrative cases are given below, each with its answer.
>  <MONOMER_SEQUENCE>
LGTGPEASLPYGANK

>  <RECORDED_VALUE>
0.5

$$$$
>  <MONOMER_SEQUENCE>
NFGDQDLIRQGTDYK

>  <RECORDED_VALUE>
0.1

$$$$
>  <MONOMER_SEQUENCE>
PQIAQFAPSASAFFG

>  <RECORDED_VALUE>
0.5

$$$$
>  <MONOMER_SEQUENCE>
ILLNKHIDAYKTFPP

>  <RECORDED_VALUE>
0.7

$$$$
>  <MONOMER_SEQUENCE>
SPRWYFYYLGTGPEA

>  <RECORDED_VALUE>
0.7

$$$$

Items follow; give Binding of serum SARS-yellow to looped/cyclic peptides of protein N of SARS-CoV Urbani for each.
1. VTQAFGRRGPEQTQG
2. PKDHIGTRNPNNNAA
3. PGSSRGNSPARMASG

1: 0.3; 2: 0.2; 3: 0.4

* * *

Hi there, I'd appreciate the recorded Binding of serum 6 to linear peptide (PEPSCAN-ELISA) for every entry that follows.
- Tested on: antibodies in sera from SARS patients (sera 1a, 1b, 2, 6, 37, 62, London, SARS-yellow, SARS-green)
- Format: binding, human
- Parameters: unit not given here

Illustrative cases are given below, each with its answer.
>  <MONOMER_SEQUENCE>
PGSSRGNSPARMASG

>  <RECORDED_VALUE>
0.2

$$$$
>  <MONOMER_SEQUENCE>
YNVTQAFGRRGPEQT

>  <RECORDED_VALUE>
0.2

$$$$
>  <MONOMER_SEQUENCE>
AFGRRGPEQTQGNFG

>  <RECORDED_VALUE>
0.3

$$$$
>  <MONOMER_SEQUENCE>
ALLLLDRLNQLESKV

>  <RECORDED_VALUE>
0.1

$$$$
>  <MONOMER_SEQUENCE>
QAFGRRGPEQTQGNF

>  <RECORDED_VALUE>
0.2

$$$$

Now take the following sequence into account.
Find the measured Binding of serum 6 to linear peptide (PEPSCAN-ELISA) of `SGGGETALALLLLDR` and report it.
0.2

* * *

- System: antibodies in sera from SARS patients (sera 1a, 1b, 2, 6, 37, 62, London, SARS-yellow, SARS-green)
- Assay type: binding, human
ASSAY_ENDPOINT: Binding of serum 1b to looped/cyclic peptides of protein X5 of SARS-CoV Urbani
One number for each entry.

>  <MONOMER_SEQUENCE>
LKILVRYNTRGNTYS

>  <RECORDED_VALUE>
0.4

$$$$
>  <MONOMER_SEQUENCE>
ILVRYNTRGNTYSTA

>  <RECORDED_VALUE>
0.3

$$$$

Items follow; give Binding of serum 1b to looped/cyclic peptides of protein X5 of SARS-CoV Urbani for each.
1. STAWLCALGKVLPFH
2. VRYNTRGNTYSTAWL
3. HRWHTMVQTCTPNVT

1: 0.4; 2: 0.3; 3: 0.5

* * *

Hi there, I'd appreciate the recorded Binding of a rabbit serum to linear peptides for every entry that follows.
- Test system: rabbit serum obtained by immunizing a rabbit with the SARS-CoV strain Frankfurt 1
- Type: binding
- Parameters: unit not given here
Numbers only.

Illustrative cases are given below, each with its answer.
>  <MONOMER_SEQUENCE>
AQFLYLYALIYFLQC

>  <MEASURED_ON>
rabbit serum obtained by immunizing a rabbit with the SARS-CoV strain Frankfurt 1

>  <RECORDED_VALUE>
0.2

$$$$
>  <MONOMER_SEQUENCE>
WQLALYKGFQFICNL

>  <MEASURED_ON>
rabbit serum obtained by immunizing a rabbit with the SARS-CoV strain Frankfurt 1

>  <RECORDED_VALUE>
0.5

$$$$
>  <MONOMER_SEQUENCE>
LIYFLQCINACRIIM

>  <MEASURED_ON>
rabbit serum obtained by immunizing a rabbit with the SARS-CoV strain Frankfurt 1

>  <RECORDED_VALUE>
0.1

$$$$
>  <MONOMER_SEQUENCE>
WLCWKCKSKNPLLYD

>  <MEASURED_ON>
rabbit serum obtained by immunizing a rabbit with the SARS-CoV strain Frankfurt 1

>  <RECORDED_VALUE>
0.2

$$$$
>  <MONOMER_SEQUENCE>
GGYSEDRHSGVKDYV

>  <MEASURED_ON>
rabbit serum obtained by immunizing a rabbit with the SARS-CoV strain Frankfurt 1

>  <RECORDED_VALUE>
0.1

$$$$

Items follow; give Binding of a rabbit serum to linear peptides for each.
1. FAGTHITMTTVYHIT
2. LSLLKVTAFQHQNSK

[0.6, 0.4]

* * *

Hi there, I'd appreciate the recorded Binding of serum 2 to looped/cyclic peptides of protein X4 of SARS-CoV Urbani for every entry that follows.
- System: antibodies in sera from SARS patients (sera 1a, 1b, 2, 6, 37, 62, London, SARS-yellow, SARS-green)
- Format: binding, human
Give bare numbers.

Illustrative cases are given below, each with its answer.
>  <MONOMER_SEQUENCE>
SVSPKLFIRQEEVQQ

>  <RECORDED_VALUE>
0.6

$$$$
>  <MONOMER_SEQUENCE>
CADGTRHTYQLRARS

>  <RECORDED_VALUE>
0.8

$$$$

Items follow; give Binding of serum 2 to looped/cyclic peptides of protein X4 of SARS-CoV Urbani for each.
1. MKIILFLTLIVFTSC
2. TSTHFAFACADGTRH
3. TLIVFTSCELYHYQE
4. QLRARSVSPKLFIRQ
5. YQLRARSVSPKLFIR
6. THFAFACADGTRHTY
7. FALTCTSTHFAFACA
8. SCELYHYQECVRGTT

[0.5, 0.6, 0.8, 0.8, 0.6, 0.5, 0.7, 0.5]

Items follow; give Binding of serum 2 to looped/cyclic peptides of protein X4 of SARS-CoV Urbani for each.
1. PKLFIRQEEVQQELY
2. TYQLRARSVSPKLFI
3. KEPCPSGTYEGNSPF
4. LFLIVAALVFLILCF
5. AALVFLILCFTIKRK

1: 0.5; 2: 0.8; 3: 0.6; 4: 0.7; 5: 0.7

Find the measured Binding of serum 2 to looped/cyclic peptides of protein X4 of SARS-CoV Urbani of `LLKEPCPSGTYEGNS` and report it.
0.6

* * *

- Test system: antibodies in sera from SARS patients (sera 1a, 1b, 2, 6, 37, 62, London, SARS-yellow, SARS-green)
- Type: binding, human
Returns y if the recorded Binding of serum SARS-yellow to linear peptide (PEPSCAN-ELISA) is greater than or equal to 0.7, and n otherwise.

A selection of reference data follows.
>  <MONOMER_SEQUENCE>
SGGGETALALLLLDR

>  <LABEL>
n

$$$$
>  <MONOMER_SEQUENCE>
VSGKGQQQQGQTVTK

>  <LABEL>
y

$$$$

Dear colleague, could you confirm whether `GNFGDQDLIRQGTDY` has Binding of serum SARS-yellow to linear peptide (PEPSCAN-ELISA) at or above 0.7?
y

Dear colleague, could you confirm whether `KGQQQQGQTVTKKSA` has Binding of serum SARS-yellow to linear peptide (PEPSCAN-ELISA) at or above 0.7?
n

* * *

Hi there, I'd appreciate the recorded Binding of serum SARS-yellow to linear peptides of protein M of SARS-CoV Urbani for every entry that follows.
- Test system: antibodies in sera from SARS patients (sera 1a, 1b, 2, 6, 37, 62, London, SARS-yellow, SARS-green)
- Assay type: binding, human
Numbers only.

Illustrative cases are given below, each with its answer.
>  <MONOMER_SEQUENCE>
LACFVLAAVYRINWV

>  <RECORDED_VALUE>
0.3

$$$$
>  <MONOMER_SEQUENCE>
SGFAAYNRYRIGNYK

>  <RECORDED_VALUE>
0.0

$$$$
>  <MONOMER_SEQUENCE>
KDLPKEITVATSRTL

>  <RECORDED_VALUE>
0.2

$$$$

Items follow; give Binding of serum SARS-yellow to linear peptides of protein M of SARS-CoV Urbani for each.
1. AIAMACIVGLMWLSY
2. VLAAVYRINWVTGGI
3. NRNRFLYIIKLVFLW

1: 0.1; 2: 0.2; 3: 0.1

Items follow; give Binding of serum SARS-yellow to linear peptides of protein M of SARS-CoV Urbani for each.
1. RVGTDSGFAAYNRYR
2. TIVTRPLMESELVIG
3. GFAAYNRYRIGNYKL
4. MESELVIGAVIIRGH
5. TRPLMESELVIGAVI
6. ASFRLFARTRSMWSF
7. RGTIVTRPLMESELV

1. 0.3
2. 0.1
3. 0.1
4. 0.2
5. 0.2
6. 0.2
7. 0.1

Items follow; give Binding of serum SARS-yellow to linear peptides of protein M of SARS-CoV Urbani for each.
1. AAYNRYRIGNYKLNT
2. RNRFLYIIKLVFLWL

[0.2, 0.3]

Items follow; give Binding of serum SARS-yellow to linear peptides of protein M of SARS-CoV Urbani for each.
1. LLQFAYSNRNRFLYI
2. VYRINWVTGGIAIAM

1. 0.2
2. 0.3

Find the measured Binding of serum SARS-yellow to linear peptides of protein M of SARS-CoV Urbani of `VIGFLFLAWIMLLQF` and report it.
0.0
